Test: Cytotoxicity of didemnins (Table II)
Type: cell-based
Conditions: Dose 2.5 ng/mL
Starred links: 1 amine or outer side, 2 acyl side, 3 side chain; linkers in the order of their positions; H or OH if unused. Positions of bridges follow the written chain, without caps; N, C: chain ends. Non-standard residues stand in square brackets, D forms with d. Residues, ends and D or L forms follow the SMILES beside them. *: point of attachment. X1 = CC[C@H](C)[C@@H](N[*:1])[C@@H](O)CC(=O)O[C@H](C(=O)[C@H](C)C(=O)[*:2])C(C)C; NMeY = CN[C@@H](Cc1ccc(O)cc1)C(=O)O; dNMeL = CN[C@H](CC(C)C)C(=O)O; pGlu = O=C1CC[C@@H](C(=O)O)N1; Pyruvoyl = CC(=O)C(=O)*; Cbz = O=C(OCc1ccccc1)*; Boc = CC(C)(C)OC(=O)*; Lac = C[C@H](O)C(=O)O
Entries and their measured Inhibition (%) follow.
RECORDED ENDPOINT: Inhibition (%)

COMPOUND	RECORDED ENDPOINT	TEST RESULT
CC[C@H](C)[C@H]1NC(=O)[C@@H](NC(=O)[C@@H](CC(C)C)N(C)C(=O)[C@@H]2CCCN2C(=O)[C@H](C)OC(=O)[C@@H](N)CCC(N)=O)[C@@H](C)OC(=O)[C@H](Cc2ccc(OC)cc2)N(C)C(=O)[C@@H]2CCCN2C(=O)[C@H](CC(C)C)NC(=O)[C@@H](C)C(=O)[C@H](C(C)C)OC(=O)C[C@@H]1OC(=O)[C@@H](N)CCC(N)=O [Gln[GlnIst^2]-Didemnin B (160), Glutaminyl-glutaminyl-didemnin B]	Inhibition (%)	0
CC[C@H](C)[C@H]1NC(=O)[C@@H](NC(=O)[C@@H](CC(C)C)N(C)C(=O)[C@@H]2CCCN2C(=O)[C@H](C)OC(=O)[C@H](CCC(N)=O)NC(=O)[C@@H]2CCC(=O)N2)[C@@H](C)OC(=O)[C@H](Cc2ccc(OC)cc2)N(C)C(=O)[C@@H]2CCCN2C(=O)[C@H](CC(C)C)NC(=O)[C@@H](C)C(=O)[C@H](C(C)C)OC(=O)C[C@@H]1O [Didemnin M (5), L-Pyroglutaminyl-L-glutaminyl-didemnin B] ([pGlu]Q[Lac]P[dNMeL]T[X1]LP[NMeY](Me); ester 6-C)	Inhibition (%)	100
CC[C@H](C)[C@H]1NC(=O)[C@@H](NC(=O)[C@@H](CC(C)C)N(C)C(=O)[C@@H]2CCCN2C(=O)[C@H](C)OC(=O)[C@@H]2CCC(=O)N2)[C@@H](C)OC(=O)[C@H](Cc2ccc(OC)cc2)N(C)C(=O)[C@@H]2CCCN2C(=O)[C@H](CC(C)C)NC(=O)[C@@H](C)C(=O)[C@H](C(C)C)OC(=O)C[C@@H]1O [pGlu-Didemnin B (39), L-Pyroglutaminyl-didemnin B] ([pGlu][Lac]P[dNMeL]T[X1]LP[NMeY](Me); ester 5-C)	Inhibition (%)	100
CC[C@H](C)[C@H]1NC(=O)[C@@H](NC(=O)[C@@H](CC(C)C)N(C)C(=O)[C@@H]2CCCN2C(=O)[C@H](C)OC(=O)[C@@H]2CCC(=O)N2C(=O)OCc2ccccc2)[C@@H](C)OC(=O)[C@H](Cc2ccc(OC)cc2)N(C)C(=O)[C@@H]2CCCN2C(=O)[C@H](CC(C)C)NC(=O)[C@@H](C)C(=O)[C@H](C(C)C)OC(=O)C[C@@H]1O	Inhibition (%)	0
CC[C@H](C)[C@H]1NC(=O)[C@@H](NC(=O)[C@@H](CC(C)C)N(C)C(=O)[C@@H]2CCCN2C(=O)OC(C)(C)C)[C@@H](C)OC(=O)[C@H](Cc2ccc(OC)cc2)N(C)C(=O)[C@@H]2CCCN2C(=O)[C@H](CC(C)C)NC(=O)[C@@H](C)C(=O)[C@H](C(C)C)OC(=O)C[C@@H]1O [Boc-Pro-didemnin A (158), Boc-L-prolyl-didemnin A] (Boc-P[dNMeL]T[X1]LP[NMeY](Me); ester 3-C)	Inhibition (%)	0
CC[C@H](C)[C@H]1NC(=O)[C@@H](NC(=O)[C@@H](CC(C)C)N(C)C(=O)[C@@H]2CCCN2C(=O)[C@H](C)OC(=O)[C@H](CCC(N)=O)NC(=O)OCc2ccccc2)[C@@H](C)OC(=O)[C@H](Cc2ccc(OC)cc2)N(C)C(=O)[C@@H]2CCCN2C(=O)[C@H](CC(C)C)NC(=O)[C@@H](C)C(=O)[C@H](C(C)C)OC(=O)C[C@@H]1O [Cbz-Gln-Didemnin B (161)] (Cbz-Q[Lac]P[dNMeL]T[X1]LP[NMeY](Me); ester 5-C)	Inhibition (%)	0
CC[C@H](C)[C@H]1NC(=O)[C@@H](NC(=O)[C@@H](CC(C)C)N(C)C(=O)[C@@H]2CCCN2C(=O)C(C)=O)[C@@H](C)OC(=O)[C@H](Cc2ccc(OC)cc2)N(C)C(=O)[C@@H]2CCCN2C(=O)[C@H](CC(C)C)NC(=O)[C@@H](C)C(=O)[C@H](C(C)C)OC(=O)C[C@@H]1O [Dehydrodidemnin B (6), Dehydrodidemnin B] (Pyruvoyl-P[dNMeL]T[X1]LP[NMeY](Me); ester 3-C)	Inhibition (%)	100
CC[C@H](C)[C@H]1NC(=O)[C@@H](NC(=O)[C@@H](CC(C)C)N(C)C(=O)[C@@H]2CCCN2)[C@@H](C)OC(=O)[C@H](Cc2ccc(OC)cc2)N(C)C(=O)[C@@H]2CCCN2C(=O)[C@H](CC(C)C)NC(=O)[C@@H](C)C(=O)[C@H](C(C)C)OC(=O)C[C@@H]1O [Prolyl-didemnin A (43), prolyl-didemnin A] (H-P[dNMeL]T[X1]LP[NMeY](Me); ester 3-C)	Inhibition (%)	40
CC[C@H](C)[C@H]1NC(=O)[C@@H](NC(=O)[C@@H](CC(C)C)N(C)C(=O)[C@@H]2CCCN2C(=O)C(C)O)[C@@H](C)OC(=O)[C@H](Cc2ccc(OC)cc2)N(C)C(=O)[C@@H]2CCCN2C(=O)[C@H](CC(C)C)NC(=O)[C@@H](C)C(=O)[C@H](C(C)C)OC(=O)C[C@@H]1O (stereo partly shown) [Didemnin (B) (2), Didemnin B, reference compound]	Inhibition (%)	40
CC[C@H](C)[C@H]1NC(=O)[C@@H](NC(=O)[C@@H](CC(C)C)N(C)C(=O)[C@@H]2CCCN2C(=O)[C@H](C)OC(=O)[C@H](CCC(N)=O)NC(=O)OCc2ccccc2)[C@@H](C)OC(=O)[C@H](Cc2ccc(OC)cc2)N(C)C(=O)[C@@H]2CCCN2C(=O)[C@H](CC(C)C)NC(=O)[C@@H](C)C(=O)[C@H](C(C)C)OC(=O)C[C@@H]1OC(=O)[C@H](CCC(N)=O)NC(=O)OCc1ccccc1 [Cbz-Gln[Cbz-GlnIst^2]DB (162)]	Inhibition (%)	0
